# Tested on: HSC-2 (human oral squamous cell carcinoma, tongue)
# run-description: Cytotoxicity assay (MTT), HSC-2 cells
# Format: cell-based
# applied-conditions: Homo sapiens; HSC-2, 48 h, MTT
parameter: CC50 (µM)
Write the value in µM as a bare number.

These recorded examples may help you get a feel for the data.
>  <compound>
NS(=O)(=O)c1ccc(N2N=C(c3cccs3)CC2c2ccc(O)cc2)cc1 (centres unmarked) [Compound 14]

>  <CC50, µM>
55

$$$$
>  <compound>
NS(=O)(=O)c1ccc(N2N=C(c3ccc(Cl)cc3)CC2c2ccc(O)cc2)cc1 (centres unmarked) [Compound 12]

>  <CC50, µM>
39

$$$$
>  <compound>
NS(=O)(=O)c1ccc(N2N=C(c3ccc(F)cc3)CC2c2ccc(O)cc2)cc1 (centres unmarked) [Compound 11]

>  <CC50, µM>
46.3

$$$$
>  <compound>
NS(=O)(=O)c1ccc(N2N=C(c3ccc(Br)cc3)CC2c2ccc(O)cc2)cc1 (centres unmarked) [Compound 13]

>  <CC50, µM>
37.7

$$$$

So what does the record say about CC50 for O=c1[nH]cc(F)c(=O)[nH]1 [Compound 5-FU, 5-Fluorouracil, reference compound] ? 45.7

And for Cc1ccc(C2=NN(c3ccc(S(N)(=O)=O)cc3)C(c3ccc(O)cc3)C2)cc1 (centres unmarked) [Compound 9] ? 33.3

Now this one: COc1ccc(C2=NN(c3ccc(S(N)(=O)=O)cc3)C(c3ccc(O)cc3)C2)cc1 (centres unmarked) [Compound 10] 65.3

Same lookup for NS(=O)(=O)c1ccc(N2N=C(c3ccccc3)CC2c2ccc(O)cc2)cc1 (centres unmarked) [Compound 8] , please. 67
